I'd be grateful if you could share measured mortality at 500 ppm for these entries.
# Test system: diamondback moth (Plutella xylostella)
# assay-procedure: Test method 4: sprayed cabbage foliage cut out, second instar larvae of diamondback moth released
# Assay type: in vivo
# applied-conditions: foliar, 120 h, sprayed 20 mL/seedling, five second instar larvae, after 5 days, 25°C

Solved cases below.
smiles-text	mortality at 500 ppm
CCSc1c(N(C)C(=O)c2cnc(C(F)(F)F)s2)nc2ccc(C(F)(F)F)cn12	≥ 80%
CCS(=O)(=O)c1c(N(C)C(=O)c2cnc(C(F)(F)F)s2)nc2ccc(Br)cn12	≥ 80%
CCSc1c(N(C)C(=O)c2ccc(C(F)(F)F)o2)nc2ccc(I)cn12	≥ 80%
CCSc1c(N(C)C(=O)c2ccc(C(F)(F)F)s2)nc2ccc(I)cn12	≥ 80%
CCSc1c(N(C)C(=O)c2nc(C(F)(F)F)cs2)nc2ccc(I)cn12	≥ 80%
CCSc1c(N(C)C(=O)c2cnn(C(F)F)c2)nc2ccc(I)cn12	≥ 80%
CCSc1c(N(C)C(=O)c2cnc(C(F)(F)F)s2)nc2ccc(I)cn12	≥ 80%

Task: Provide one value: measured mortality at 500 ppm of "CCS(=O)(=O)c1c(N(C)C(=O)c2cc(C(F)(F)F)n(C)n2)nc2ccc(I)cn12"
Output: ≥ 80%
